EXPERIMENTAL PROTOCOL: P. aeruginosa biofilm formation inhibitors, primary screen, strain PAO1, LB-PBS medium, absorbance 600 nm (AID 1176); note: test concentration not given here
EXPERIMENTAL SETUP: P. aeruginosa PAO1 growth/biofilm, A600, 12 h; higher = more signal
Assign condition met whenever z-score does not fall below -0.04; assign condition not met whenever it does.

COMPOUND	DISCRETE LABEL
O=C1C2C=CC(C(O)c3ccco3)N(Nc3ccccc3)C2C(=O)N1c1ccccc1 (stereo not drawn)	condition not met
CN1C(=O)C2C(C1=O)C1C=C(CCCO)C2C(c2cccs2)N1Cc1cc2c(cc1Br)OCO2 (stereo not drawn)	condition not met
C=C(COC)C(=O)CC[C@H](OC(=O)c1cccnc1)c1ccc(CO)o1	condition met
COCCOC(=O)N1C(=O)[C@@]2(c3cc(C#CC4(O)CCCCCC4)ccc31)[C@H](c1ccc(OCCO)cc1)N1[C@H](c3ccccc3)[C@H](c3ccccc3)OC(=O)[C@H]1[C@@H]2C(=O)Nc1nc2ccccc2s1	condition met
O=c1cccc(-c2ccc(F)cc2)o1	condition not met
O=C(NCC(O)CO)[C@@]1(CCS(=O)(=O)c2ccccc2)COC(c2ccc(OCCCO)cc2)=N1 (stereo partly drawn)	condition not met
C=C(CCCC)C(=O)CC[C@H](OC(C)=O)c1ccc(OCCO)cc1	condition met
COc1ccc(C#Cc2ccc3c(c2)[C@]2(C(=O)N3)[C@H](C(=O)Nc3nc4ccccc4s3)[C@H]3C(=O)O[C@H](c4ccccc4)[C@H](c4ccccc4)N3[C@@H]2c2ccccc2OCCO)cc1	condition met

====

EXPERIMENTAL PROTOCOL: MM1S myeloma cell viability, profiling panel, resazurin fluorescence, basal, 24 h, PK04 Diversity Set (AID 1174);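 note: MM1S multiple myeloma cell line; test concentration not given here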
EXPERIMENTAL SETUP: higher = more signal, called active from +8 up or from −8 down
Parameter z-score: see the listing below.

STRUCTURE SMILES	z-score
[N-]=[N+]=NCc1ccccc1[C@@H]1OC(c2ccc(OCCCO)cc2)=N[C@]1(Cc1ccccc1)C(=O)NCCN1CCOCC1	0.162
C=C(CCCC)C(=O)CC[C@H](OC(C)=O)c1ccc(OCCO)cc1	-0.464
[N-]=[N+]=NCc1ccccc1C[C@]1(C(=O)N2CCOCC2)COC(c2ccc(OCCCO)cc2)=N1	0.117
O=C1O[C@H](c2ccccc2)[C@H](c2ccccc2)N2[C@H]1[C@@H](C(=O)N1CCCCCCC1)[C@]1(C(=O)Nc3ccc(C#CC4(O)CCCCCC4)cc31)[C@H]2c1ccccc1OCCO	-0.382

====

TGT: Follistatin (Homo sapiens)
EXPERIMENTAL PROTOCOL: follistatin binders on small-molecule microarrays, primary screen, biochemical, small-molecule microarray, 635/667 nm fluorescence (AID 1132)
EXPERIMENTAL SETUP: FST binding, 635 nm fluorescence, higher = more signal
ASSAY READOUT: composite z-score

COMPOUND	REPORTED VALUE
CCOC(=O)C1=CCN(S(=O)(=O)c2ccc(C)cc2)C1c1ccccc1 (stereo unspecified)	0.467
CO[C@H]1O[C@H](CO)[C@@H](OC(=O)CCc2ccccc2)[C@H](OC(=O)c2cc3ccccc3[nH]2)[C@H]1OC(=O)c1cc2ccccc2[nH]1	1.26
CC(CO)N1C(=O)[C@@H]2[C@H]3C(=O)OCC=C[C@H]3OC23C=CCN(c2ccc(Cl)cc2)C(=O)[C@@H]13 (stereo partly specified)	-2.57
CN1C(=O)C2C(C1=O)C1C=C(CCCO)C2C(C2CC2)N1Cc1cc2c(cc1Br)OCO2 (stereo unspecified)	0.4
CC1CC/C=C\[C@H]2OC34C=CCN(C(C)(C)C)C(=O)[C@H]3N(C(CO)C(C)C)C(=O)[C@@H]4C2C(=O)O1 (stereo partly specified)	0.276
CCCCCCCCCCC(O)C1C=CC2C(=O)N(c3ccccc3)C(=O)C2N1Nc1ccccc1F (stereo unspecified)	-0.348
CN(C)CCCC[C@@H]1NC(=O)[C@@H]2C[C@H](C(=O)O)[C@H](c3cccc(OCCO)c3)N2C1=O	0.072
CCOC(=O)C[C@H]1[C@H](OC(=O)c2ccccc2-c2ccccc2)[C@@H](NC(=O)c2ccc3ccccc3n2)c2cc(OCCCO)ccc2N1C(=O)c1ccccc1	0.782
COc1ccc(NC(=O)O[C@H]2[C@@H]3OC(=O)[C@H](Cc4cccc(Br)c4)C/C=C/C[C@@H](Cc4cccc(Br)c4)C(=O)O[C@H]3[C@@H](OC)O[C@@H]2CO)cc1	0.358
C=C(COC)C(=O)CC[C@H](OC(C)=O)c1ccc(OCCO)cc1	1.51
COc1ccc([Si](C)(C)[C@@H]2[C@@H](CCn3cc([C@H](O)c4ccccc4)nn3)O[C@]3(C(=O)N(c4ccccc4)c4ccccc43)[C@H]2C)cc1	0.586
CN1C(=O)C2C=CC(C(O)c3cc(C(F)(F)F)cc(C(F)(F)F)c3)N(NC(=O)OC(C)(C)C)C2C1=O (stereo unspecified)	1.27
COC(=O)[C@@]1(Cc2ccc(F)cc2)[C@H]2c3cc(C(=O)N4CCCC4)n(C)c3C[C@H]2CN1C(=O)c1ccccc1	0.253
CCCC=C(CCC)[C@@H](NS(=O)(=O)c1cccc2cccnc12)c1ccc(-c2ccccc2)cc1	0.964
COCCCNC(=O)[C@@H]1c2ccccc2C(=O)N(C2Cc3ccccc3C2)[C@H]1c1ccc(CO)cc1	1.08
C=C(COC)C(=O)CC[C@@H](OC(=O)c1cccnc1)c1ccccc1OCCO	0.974

The origin of these recorded values is PubChem BioAssay.
